# assay: NIH-3T3 fibroblast cytotoxicity, dose response, cytotoxicity control, cell-based, fluorescence, Alamar Blue, secondary assay (AID 2327);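 further: NIH-3T3 mouse fibroblasts cultured with fluconazole at 8 µg/mL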
# Type: functional
Calls of active or inactive are those of the source. No stated cut-off is given here; in the data, actives have a measured EC50 and inactives only a lower limit.
readout kind: EC50

[
  {
    "smiles input": "Cc1oc2c(F)c(F)c(F)c(F)c2c1S(=O)(=O)Nc1cccc(C(F)(F)F)c1",
    "readout kind": "EC50",
    "value observed": "> 160 µM (inconclusive)"
  },
  {
    "smiles input": "O=C(Oc1cc2oc(=O)cc(-c3ccccc3)c2cc1Cl)C1CCCCC1",
    "readout kind": "EC50",
    "value observed": "> 150 µM (inactive)"
  },
  {
    "smiles input": "Cn1c(SC2=CS(=O)(=O)c3ccccc32)nc2ccccc21",
    "readout kind": "EC50",
    "value observed": "7.76 µM (inconclusive)"
  },
  {
    "smiles input": "COc1cccc(/C=N/NC(=O)c2nc(-c3ccccc3)cc(-c3ccccc3)n2)c1O",
    "readout kind": "EC50",
    "value observed": "> 150 µM (inactive)"
  },
  {
    "smiles input": "CCCn1c(=N)n(CC(=O)c2ccc([N+](=O)[O-])cc2)c2ccccc21",
    "readout kind": "EC50",
    "value observed": "10.5 µM (active)"
  }
]
